- ASSAY_SUMMARY: recombinant UMI read abundance after kanamycin selection (control-corrected) (log10(CPM+1)); higher = more efficient recombination; extreme values may be limits of the assay; sequences stand for … in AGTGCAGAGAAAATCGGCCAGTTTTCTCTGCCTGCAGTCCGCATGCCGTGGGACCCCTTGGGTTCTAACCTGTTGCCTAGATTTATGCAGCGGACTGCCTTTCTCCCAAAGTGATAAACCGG…AGGTTGGTTTCACT; site = the 11-nt donor;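 also: IS621 bridge recombinase in Escherichia coli cells against a fixed T5 target plasmid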
VALUE_KIND: recombinant UMI read abundance (log10)
Just the number, please, no unit after it.

1) AAGACTACATGGACCGGTTTTCCCGGTAATCCGTATTTGAC (site AAGACTACTGT) : 2.69

ATCTATACATGGACCGGTTTTCCCGGTAATCCGTATTTGGC (site ATCTATACTGT) has a reported recombinant UMI read abundance (log10) of 2.09

CGACGACCATGGACCGGTTTTCCCGGTAATCCGTATTTGGG (site CGACGACCTCC) has a reported recombinant UMI read abundance (log10) of 0.0126

AATTTAACATGGACCGGTTTTCCCGGTAATCCGTATTTGCT (site AATCTAACTAG) has a reported recombinant UMI read abundance (log10) of 1.95

CTCAGCTCATGGACCGGTTTTCCCGGTAATCCGTATTTGAA (site CTCAGCTCTTT) has a reported recombinant UMI read abundance (log10) of 2.08

ACATCTACATGGACCGGTTTTCCCGGTAATCCGTATTTGTT (site ACATCTACTCA) has a reported recombinant UMI read abundance (log10) of 0.0105

CGATAGACATGGACCGGTTTTCCCGGTAATCCGTATTTGTT (site CGATGGACTAA) has a reported recombinant UMI read abundance (log10) of 0.0144

AGGTTCCCATGGACCGGTTTTCCCGGTAATCCGTATTTGAG (site AGGTTCCCTCG) has a reported recombinant UMI read abundance (log10) of 0.00792

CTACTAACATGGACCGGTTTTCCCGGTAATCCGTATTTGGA (site CAACTAACTTC) has a reported recombinant UMI read abundance (log10) of 0.0111
